Let's look at some molecules and their measured Activity.
# assay.system: P2Y purinoceptor 1 (Meleagris gallopavo)
# assay.explanation: Antagonist activity at Meleagris P2Y1R expressed in human 1321N1 cells assessed as inhibition of […] calcium mobilization at 100 uM by FLIPR assay relative to control
# Format: cell-based
# Parameters: scale not given: the % may be the effect or the level left

1) O=C(O)c1ccc(C#Cc2ccc3c(c2)C=C([N+](=O)[O-])C(C(F)(F)F)O3)cc1 (racemic) | < 30%
2) CC[Si](C#Cc1cccc2c1OC(C(F)(F)F)C([N+](=O)[O-])=C2)(CC)CC (racemic) | 39.2%
3) CC[Si](C#Cc1ccc2c(c1)C=C([N+](=O)[O-])C(C(F)(F)F)O2)(CC)CC (racemic) | < 30%

We now examine a further molecule.
Sample C[Si](C)(C)C#Cc1ccc2c(c1)C=C([N+](=O)[O-])C(C(F)(F)F)O2 (racemic) — what was its Activity?
< 30%

Reference source: ChEMBL document CHEMBL5223123
